Source of measurements: patent US12251387B2

molecular target: DNA-PK (Homo sapiens, UniProt P78527); experiment: DNA-PK Inhibition Assay (standard radiometric kinase assay, 33P-ATP, peptide substrate); format: biochemical; details: radiometric assay, approximately 6 nM DNA-PK, 100 μM ATP, 45 min; fit to competitive tight-binding inhibition; read-out: Ki for the inhibition of DNA-PK
pKi: −log10 of the molar value.

| Compound | pKi |
| --- | --- |
| Clc1nc(N[C@H]2CC[C@@H](Oc3cc(N4CCOCC4)cc4nccnc34)CC2)nc2cc[nH]c12 | > 7.00 |
| OC(c1ccc(N[C@H]2CC[C@@H](Oc3cc(N4CCOCC4)cc4nccnc34)CC2)nc1)C(F)(F)F (stereo partly drawn) | > 7.00 |
| c1cnc2c(O[C@H]3CC[C@@H](Nc4ncc(OCCCN5CCCCC5)cn4)CC3)cc(N3CCOCC3)cc2n1 | > 7.00 |
